# target_or_system: PI3K-δ (PI3K(p1108/p857) (h)) (Homo sapiens)
# assay_method_text: Evaluation of inhibitory activity against PI3K-δ (HTRF kinase assay)
# Type: biochemical
# experimental_parameters: compound concentration 0.01 μM; read-out: EXP_VALUE(% Inhibition) PI3K-δ 0.01 μM
Collected inhibition at 0.01 µM values appear next to each entry.
Write down the numeric answer in % and omit the unit.

Example cases with answers are listed next.
C[C@H](Nc1ncnc2[nH]ccc(=O)c12)c1c(Cl)c2cccc(N(C)c3ccccn3)c2c(=O)n1-c1ccccc1 [Example 349]: 72
C[C@H](Nc1ncnc2[nH]ccc(=O)c12)c1c(Cl)c2cccc(-c3ccc4[nH]ccc4c3)c2c(=O)n1-c1ccccc1 [Example 73]: 72
C[C@H](Nc1ncnc2[nH]ccc(=O)c12)c1c(Cl)c2cccc(N3CC4CC=CCC4C3)c2c(=O)n1-c1ccccc1 (some centres unmarked) [Example 8]: 36
C[C@H](Nc1ncnc2[nH]ccc(=O)c12)c1c(Cl)c2cccc(N3CCN(C)CC3)c2c(=O)n1-c1ccccc1 [Example 250]: 32

Entry C[C@H](Nc1ncnc2[nH]ccc(=O)c12)c1c(Cl)c2cccc(-c3ccc(-c4ccccc4)cc3)c2c(=O)n1-c1ccccc1 [Example 254] , inhibition at 0.01 µM reported as 96

----------
# target_or_system: PI3K-δ (PI3K(p1108/p857) (h)) (Homo sapiens, UniProt O00329)
# Sequence (O00329 whole entry): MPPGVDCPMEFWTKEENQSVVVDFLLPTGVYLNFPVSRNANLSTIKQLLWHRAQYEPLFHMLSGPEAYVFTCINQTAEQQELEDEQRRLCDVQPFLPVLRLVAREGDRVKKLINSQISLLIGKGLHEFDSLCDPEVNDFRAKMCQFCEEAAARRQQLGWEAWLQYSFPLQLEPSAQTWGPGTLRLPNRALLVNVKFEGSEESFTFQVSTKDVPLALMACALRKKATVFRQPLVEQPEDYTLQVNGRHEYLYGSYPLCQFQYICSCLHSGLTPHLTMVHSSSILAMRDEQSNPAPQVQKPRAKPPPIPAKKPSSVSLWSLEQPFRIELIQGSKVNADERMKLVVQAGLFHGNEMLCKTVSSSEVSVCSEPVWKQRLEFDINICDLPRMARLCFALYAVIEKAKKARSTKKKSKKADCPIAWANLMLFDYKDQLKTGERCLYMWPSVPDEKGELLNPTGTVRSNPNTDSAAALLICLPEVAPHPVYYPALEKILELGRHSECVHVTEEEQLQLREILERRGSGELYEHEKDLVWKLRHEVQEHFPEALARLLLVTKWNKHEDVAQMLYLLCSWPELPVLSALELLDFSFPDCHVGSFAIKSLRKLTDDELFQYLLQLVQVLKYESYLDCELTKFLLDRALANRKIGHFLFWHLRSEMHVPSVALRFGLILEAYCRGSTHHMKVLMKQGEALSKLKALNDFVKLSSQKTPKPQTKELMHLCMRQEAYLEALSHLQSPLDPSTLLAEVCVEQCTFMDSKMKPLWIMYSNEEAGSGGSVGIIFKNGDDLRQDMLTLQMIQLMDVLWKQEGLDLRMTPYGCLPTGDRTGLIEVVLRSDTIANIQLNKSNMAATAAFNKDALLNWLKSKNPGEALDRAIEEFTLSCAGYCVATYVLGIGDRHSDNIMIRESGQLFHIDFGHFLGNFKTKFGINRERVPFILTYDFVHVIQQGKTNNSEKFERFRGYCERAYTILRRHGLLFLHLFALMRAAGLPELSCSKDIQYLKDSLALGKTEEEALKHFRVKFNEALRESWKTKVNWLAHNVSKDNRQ
# Sequence (P27986 whole entry partner): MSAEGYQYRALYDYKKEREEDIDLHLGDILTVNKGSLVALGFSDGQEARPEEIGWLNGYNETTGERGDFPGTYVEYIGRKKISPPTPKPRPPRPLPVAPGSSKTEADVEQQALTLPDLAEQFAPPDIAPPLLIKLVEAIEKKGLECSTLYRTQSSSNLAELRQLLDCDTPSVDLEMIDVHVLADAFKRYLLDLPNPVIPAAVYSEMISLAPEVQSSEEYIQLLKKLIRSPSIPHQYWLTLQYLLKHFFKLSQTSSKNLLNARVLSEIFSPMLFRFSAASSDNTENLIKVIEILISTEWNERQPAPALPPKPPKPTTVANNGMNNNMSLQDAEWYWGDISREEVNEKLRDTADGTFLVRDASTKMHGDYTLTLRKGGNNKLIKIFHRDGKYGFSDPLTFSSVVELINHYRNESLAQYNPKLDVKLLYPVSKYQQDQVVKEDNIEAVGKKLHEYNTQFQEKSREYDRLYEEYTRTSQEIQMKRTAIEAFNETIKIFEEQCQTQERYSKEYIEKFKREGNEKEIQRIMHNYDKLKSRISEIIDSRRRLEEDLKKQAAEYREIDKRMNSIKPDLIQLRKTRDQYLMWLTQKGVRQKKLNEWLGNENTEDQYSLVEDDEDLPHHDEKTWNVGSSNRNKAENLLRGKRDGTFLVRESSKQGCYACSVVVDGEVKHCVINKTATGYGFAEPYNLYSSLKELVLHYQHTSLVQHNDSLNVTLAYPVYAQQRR
# assay_method_text: Evaluation of inhibitory activity against PI3K-δ (HTRF kinase assay)
# Type: biochemical
# experimental_parameters: compound concentration 0.1 μM; read-out: EXP_VALUE(% Inhibition) PI3K-δ 0.1 μM
Collected inhibition at 0.1 µM values appear next to each entry.
Write down the numeric answer in % and omit the unit.

Example cases with answers are listed next.
C[C@H](Nc1ncnc2[nH]ccc(=O)c12)c1c(Cl)c2cccc(-c3ccc(C(F)(F)F)cc3Cl)c2c(=O)n1-c1ccccc1: 100
C[C@H](Nc1ncnc2[nH]ccc(=O)c12)c1cc2cccc(-c3cccnc3)c2c(=O)n1-c1ccccc1: 114
C[C@H](Nc1ncnc2[nH]ccc(=O)c12)c1cc2cccc(-c3ccc(N(C)C)nc3)c2c(=O)n1-c1ccccc1: 82

Entry "C[C@H](Nc1ncnc2[nH]ccc(=O)c12)c1c(Br)c2cccc(Cl)c2c(=O)n1-c1ccccc1" , inhibition at 0.1 µM reported as 104

Entry "C[C@H](Nc1ncnc2[nH]ccc(=O)c12)c1c(Cl)c2cccc(-c3ccco3)c2c(=O)n1-c1ccccc1" , inhibition at 0.1 µM reported as 89

Entry "C[C@H](Nc1ncnc2[nH]ccc(=O)c12)c1c(Cl)c2cccc(SCc3ccc(Cl)cc3)c2c(=O)n1-c1ccccc1" , inhibition at 0.1 µM reported as 27

Entry "C[C@H](Nc1ncnc2[nH]ccc(=O)c12)c1cc2cccc(-c3ccc(F)cc3)c2c(=O)n1-c1ccccc1" , inhibition at 0.1 µM reported as 107

Entry "Cc1cc(-c2cccc3c(Cl)c([C@H](C)Nc4ncnc5[nH]ccc(=O)c45)n(-c4ccccc4)c(=O)c23)cc(C)c1O" , inhibition at 0.1 µM reported as 94

Entry "Cc1nc2ccc(-c3cccc4c(Cl)c([C@H](C)Nc5ncnc6[nH]ccc(=O)c56)n(-c5ccccc5)c(=O)c34)cc2o1" , inhibition at 0.1 µM reported as 93

Entry C[C@H](Nc1ncnc2[nH]ccc(=O)c12)c1c(Cl)c2cccc(N3CCCC3O)c2c(=O)n1-c1ccccc1 (stereo partly drawn) , inhibition at 0.1 µM reported as 20

Entry "CSc1ccc(-c2cccc3c(Cl)c([C@H](C)Nc4ncnc5[nH]ccc(=O)c45)n(-c4ccccc4)c(=O)c23)cc1" , inhibition at 0.1 µM reported as 94

Entry "Cc1ccc(-c2cccc3c(Cl)c([C@H](C)Nc4ncnc5[nH]ccc(=O)c45)n(-c4ccccc4)c(=O)c23)cn1" , inhibition at 0.1 µM reported as 98

----------
# target_or_system: PI3K-δ (PI3K(p1108/p857) (h)) (Homo sapiens)
# assay_method_text: Evaluation of inhibitory activity against PI3K-δ (HTRF kinase assay)
# Format: biochemical
# experimental_parameters: compound concentration 0.1 μM; read-out: EXP_VALUE(% Inhibition) PI3K-δ 0.1 μM
Everything with inhibition at 0.1 µM lower than 90% is 0.0; everything else, including exactly 90%, is 1.0.

Below are worked cases with known answers.
CCCSc1cccc2c(Cl)c([C@H](C)Nc3ncnc4[nH]ccc(=O)c34)n(-c3ccccc3)c(=O)c12: 0.0
C[C@H](Nc1ncnc2[nH]ccc(=O)c12)c1c(Cl)c2cccc(-c3ccc(-c4ccccc4)cc3)c2c(=O)n1-c1ccccc1: 1.0
COc1ccc(-c2cccc3c(Cl)c([C@H](C)Nc4ncnc5[nH]ccc(=O)c45)n(-c4ccccc4)c(=O)c23)cc1: 1.0
C[C@H](Nc1ncnc2[nH]ccc(=O)c12)c1c(Cl)c2cccc(N3CCN(C)CC3)c2c(=O)n1-c1ccccc1: 0.0
CC(Oc1cccc2c(Cl)c([C@H](C)Nc3ncnc4[nH]ccc(=O)c34)n(-c3ccccc3)c(=O)c12)c1ccncc1 (stereo partly drawn): 1.0
C[C@H](Nc1ncnc2[nH]ccc(=O)c12)c1c(Cl)c2cccc(OCc3ccccc3)c2c(=O)n1-c1ccccc1: 0.0
C[C@H](Nc1ncnc2[nH]ccc(=O)c12)c1c(Cl)c2cccc(-c3cccc(F)c3)c2c(=O)n1-c1ccccc1: 1.0
C[C@H](Nc1ncnc2[nH]ccc(=O)c12)c1c(Cl)c2cccc(B3OC(C)(C)C(C)(C)O3)c2c(=O)n1-c1ccccc1: 1.0

IN: Reported inhibition at 0.1 µM at or above 90%? "C[C@H](Nc1ncnc2[nH]ccc(=O)c12)c1c(Cl)c2cccc(-c3ccc[nH]3)c2c(=O)n1-c1ccccc1"
OUT: 1.0

IN: Reported inhibition at 0.1 µM at or above 90%? "C[C@H](Nc1ncnc2[nH]ccc(=O)c12)c1cc2cccc(-c3ccc(C(N)=O)cc3)c2c(=O)n1-c1ccccc1"
OUT: 1.0

IN: Reported inhibition at 0.1 µM at or above 90%? "C[C@H](Nc1ncnc2[nH]ccc(=O)c12)c1c(Cl)c2cccc(-c3ccc(-c4nnc(N)s4)cc3)c2c(=O)n1-c1ccccc1"
OUT: 1.0

IN: Reported inhibition at 0.1 µM at or above 90%? "C[C@H](Nc1ncnc2[nH]ccc(=O)c12)c1c(Cl)c2cccc(-c3ccc(C4CC4)cc3)c2c(=O)n1-c1ccccc1"
OUT: 0.0

IN: Reported inhibition at 0.1 µM at or above 90%? "C[C@H](Nc1ncnc2[nH]ccc(=O)c12)c1c(Cl)c2cccc(-c3ccc4ncn(C)c4c3)c2c(=O)n1-c1ccccc1"
OUT: 1.0

IN: Reported inhibition at 0.1 µM at or above 90%? "C[C@H](Nc1ncnc2[nH]ccc(=O)c12)c1c(Cl)c2cccc(/C(N)=N/O)c2c(=O)n1-c1ccccc1"
OUT: 1.0

IN: Reported inhibition at 0.1 µM at or above 90%? "C[C@H](Nc1ncnc2[nH]ccc(=O)c12)c1c(Cl)c2cccc(-c3cccnc3)c2c(=O)n1-c1ccccc1"
OUT: 1.0

IN: Reported inhibition at 0.1 µM at or above 90%? "C[C@H](Nc1ncnc2[nH]ccc(=O)c12)c1c(C2CC2)c2cccc(Cl)c2c(=O)n1-c1ccccc1"
OUT: 1.0

IN: Reported inhibition at 0.1 µM at or above 90%? "C[C@H](Nc1ncnc2[nH]ccc(=O)c12)c1c(Cl)c2cccc(N(C)C)c2c(=O)n1-c1ccccc1"
OUT: 1.0

IN: Reported inhibition at 0.1 µM at or above 90%? "C[C@H](Nc1ncnc2[nH]ccc(=O)c12)c1c(Cl)c2cccc(-c3ccc(SC(C)(C)C)cc3)c2c(=O)n1-c1ccccc1"
OUT: 0.0

----------
# target_or_system: PI3K-δ (PI3K(p1108/p857) (h)) (Homo sapiens)
# assay_method_text: Evaluation of inhibitory activity against PI3K-δ (HTRF kinase assay)
# Assay type: biochemical
# experimental_parameters: compound at 0.1 μM; read-out: EXP_VALUE(% Inhibition) PI3K-δ 0.1 μM
# Experimental: <Experimental Example 1> Evaluation of Inhibitory Activity Properties Against PI3K-δ […] A detection buffer comprising Eu (europium)-labelled anti-GST monoclonal antibody, GST-tagged GRP1 PH domain and streptavidin-allophycocyanin was added. A plate was read in a time-resolved fluorescence mode and a homogeneous time-resolved fluorescence (HTRF) signal was determined according to HTRF=10000×(Em 665 nm/Em 620 nm).
Collected inhibition at 0.1 µM values appear next to each entry.
Answer format: value, then unit.

Entry C[C@H](Nc1ncnc2[nH]ccc(=O)c12)c1c(Cl)c2cccc(-c3cnc(Cl)nc3)c2c(=O)n1-c1ccccc1 [Example 402] , inhibition at 0.1 µM reported as 71%

Entry CC(C)S(=O)(=O)c1cccc2c(Cl)c([C@H](C)Nc3ncnc4[nH]ccc(=O)c34)n(-c3ccccc3)c(=O)c12 [Example 416] , inhibition at 0.1 µM reported as 13%

Entry CC[S@](=N)(=O)c1cccc2c(Cl)c([C@H](C)Nc3ncnc4[nH]ccc(=O)c34)n(-c3ccccc3)c(=O)c12 [Example 436] , inhibition at 0.1 µM reported as 7%

Entry CCOc1ncc(-c2cccc3cc([C@H](C)Nc4ncnc5[nH]ccc(=O)c45)n(-c4ccccc4)c(=O)c23)cn1 [Example 384] , inhibition at 0.1 µM reported as 85%

Entry CCC[S@@+]([O-])c1cccc2c(Cl)c([C@H](C)Nc3ncnc4[nH]ccc(=O)c34)n(-c3ccccc3)c(=O)c12 [Example 397] , inhibition at 0.1 µM reported as 94%

Every entry's value here was drawn from patent US20230072683A1.
